Molecular target: T1, Soluble CDCP1 extracellular domain (CDCP1-ECD) (SEQ ID NO:30) fused to Streptavidin Binding Protein (SBP) (human, UniProt Q9H5V8 30-663)
T1 construct: also called SBP-CDCP1-ECD
T1 sequence: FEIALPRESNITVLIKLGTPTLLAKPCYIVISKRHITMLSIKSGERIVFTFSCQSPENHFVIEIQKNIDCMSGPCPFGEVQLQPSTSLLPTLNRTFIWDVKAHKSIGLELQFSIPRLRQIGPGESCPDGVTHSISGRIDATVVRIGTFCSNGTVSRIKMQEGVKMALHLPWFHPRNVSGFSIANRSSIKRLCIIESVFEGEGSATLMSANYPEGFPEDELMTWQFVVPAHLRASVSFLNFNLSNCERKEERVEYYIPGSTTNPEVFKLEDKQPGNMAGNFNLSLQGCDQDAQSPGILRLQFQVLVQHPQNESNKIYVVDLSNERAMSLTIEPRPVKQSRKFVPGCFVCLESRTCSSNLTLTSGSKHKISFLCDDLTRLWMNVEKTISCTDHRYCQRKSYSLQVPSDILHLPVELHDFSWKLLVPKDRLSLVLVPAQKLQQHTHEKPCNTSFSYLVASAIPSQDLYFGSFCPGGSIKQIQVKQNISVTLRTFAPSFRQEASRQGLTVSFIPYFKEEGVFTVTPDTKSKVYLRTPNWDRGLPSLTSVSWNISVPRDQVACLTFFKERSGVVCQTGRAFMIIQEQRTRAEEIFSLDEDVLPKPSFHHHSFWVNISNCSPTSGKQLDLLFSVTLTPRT
Assay: ELISA on captured SBP-CDCP1-ECD, ratio relative to chimeric CUB4 (chHC4)
Metric Name: binding result

[
  {
    "Binder": "hHC4-K / hLC4-a (antibody, V domains shown) VH: EVQLVESGGGLVKPGGSLRLSCAASGFTFNSYGMSWVRQAPGKGLEWVSSISSGGSYIYYADSVKGRFTISRDNAKNSLYLQMNSLRAEDTAVYYCARHPDYDGVWFAYWGQGTLVTVSS VL: EIVLTQSPATLSLSPGERATLSCSVSSSVFYVHWYQQKPGQAPRLLIYDTSKLASGIPARFSGSGSGTDFTLTISSLEPEDFAVYYCQQWNSNPPTFGGGTKVEIK",
    "Experimental Value": "no binding"
  },
  {
    "Binder": "hHC4-K / hLC4-e (antibody, V domains shown) VH: EVQLVESGGGLVKPGGSLRLSCAASGFTFNSYGMSWVRQAPGKGLEWVSSISSGGSYIYYADSVKGRFTISRDNAKNSLYLQMNSLRAEDTAVYYCARHPDYDGVWFAYWGQGTLVTVSS VL: DIQMTQSPSSLSASVGDRVTITCSVSSSVFYVHWYQQKPGKAPKLLIYDTSKLASGVPSRFSGSGSGTDFTFTISSLQPEDIATYYCQQWNSNPPTFGGGTKVEIK",
    "Experimental Value": "no binding"
  },
  {
    "Binder": "hHC4-K / hLC4-d (antibody, V domains shown) VH: EVQLVESGGGLVKPGGSLRLSCAASGFTFNSYGMSWVRQAPGKGLEWVSSISSGGSYIYYADSVKGRFTISRDNAKNSLYLQMNSLRAEDTAVYYCARHPDYDGVWFAYWGQGTLVTVSS VL: EIVMTQSPATLSVSPGERATLSCSVSSSVFYVHWYQQKPGQAPRLLIYDTSKLASGIPARFSGSGSGTEYTLTISSLQSEDFAVYYCQQWNSNPPTFGGGTKVEIK",
    "Experimental Value": "no binding"
  }
]
